Assay: self-splicing fitness, log relative to wild type (ln ratio); higher = more splicing; Tetrahymena group I intron in knt gene, E. coli kanamycin selection, DiMSum; sequences stand for … in CUCUCU…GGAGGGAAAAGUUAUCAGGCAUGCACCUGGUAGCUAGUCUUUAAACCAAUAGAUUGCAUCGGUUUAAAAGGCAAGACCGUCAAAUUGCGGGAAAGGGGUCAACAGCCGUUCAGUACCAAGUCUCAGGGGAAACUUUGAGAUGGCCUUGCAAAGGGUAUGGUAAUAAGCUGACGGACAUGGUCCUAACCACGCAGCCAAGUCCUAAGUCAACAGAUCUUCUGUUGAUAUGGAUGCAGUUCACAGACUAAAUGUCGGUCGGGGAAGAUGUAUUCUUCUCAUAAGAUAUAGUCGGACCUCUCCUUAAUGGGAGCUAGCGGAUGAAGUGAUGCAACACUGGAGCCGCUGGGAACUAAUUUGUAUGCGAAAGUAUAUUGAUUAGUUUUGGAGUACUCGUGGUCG;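 also: selection with 25 µg/mL kanamycin versus none on LB agar overnight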
Settings: 37 °C
Classification by self-splicing fitness (ln) follows these ranges: low value = under -2, medium value = from -2 up to -0.8, high value = -0.8 and over

polymer_sequence=UUAAAGCAAUAUUACGUCCA discrete_label="high value"
polymer_sequence=CUGCAGCAAUAUUACGUCCG discrete_label="high value"
polymer_sequence=CAGAAGCAAUAUUACGAAGG discrete_label="medium value"
polymer_sequence=UUCCAGCAAUAUUACGCCCU discrete_label="low value"
polymer_sequence=AAACAGCAAUAUUACGAUAG discrete_label="low value"
polymer_sequence=AAGGAGCAAUAUUACGACCA discrete_label="medium value"
polymer_sequence=UAUUAGCAAUAUUACGCGUA discrete_label="high value"
polymer_sequence=UUGCAGCAAUAUUACGUGGG discrete_label="low value"
polymer_sequence=CUCUAGCAAUAUUACGCGGC discrete_label="low value"
polymer_sequence=GCGUAGCAAUAUUACGUUGU discrete_label="medium value"

State the band of `UGCUAGCAAUAUUACGUUUC`
low value

Hello team, could you let me know which band the following sequence falls into: `UCUGAGCAAUAUUACGAUGU`
high value

Band for the recorded self-splicing fitness (ln) of `UGUUAGCAAUAUUACGUACG` ?
high value

Band for the recorded self-splicing fitness (ln) of `GAGCAGCAAUAUUACGCCAU` ?
low value
